The measurements presented in this section are drawn from patent EP3876933B1.

Task for the reader: assign each of the following molecules its reported pIC50.
- Test system: human neutrophils
- protocolText: Elastase release in fMLF/CB-activated human neutrophils (Methoxysuccinyl-Ala-Ala-Pro-Val-p-nitroanilide substrate)
- Type: cell-based
- measurementContext: Neutrophil; FMLP/CB-induced human neutrophils; mean ± S.E.M. (n = 3-5); read-out: Elastase Release IC50
The read-out pIC50 is expressed as -log10 of concentration in moles per litre.

Which pIC50 is reported with human neutrophils for this entry: `Nc1noc2c1c(Nc1ccccc1O)nc1ccccc12` ? 5.24

Which pIC50 is reported with human neutrophils for this entry: `COc1cc(Nc2nc3ccccc3c3c2c(N)nn3C)cc(OC)c1OC` ? 5.49

====

- System: human neutrophils
- protocolText: Elastase release in fMLF/CB-activated human neutrophils (Methoxysuccinyl-Ala-Ala-Pro-Val-p-nitroanilide substrate)
- Format: cell-based
- measurementContext: Neutrophil; FMLP/CB-induced human neutrophils; mean ± S.E.M. (n = 3-5); read-out: Elastase Release IC50
pIC50: −log10 of the molar value.
recordedMetric: pIC50

Which pIC50 is reported with human neutrophils for this entry: COc1ccc(Nc2nc3ccccc3c3onc(N)c23)cc1 [Compound 23] ? < 5.00

Which pIC50 is reported with human neutrophils for this entry: Nc1noc2c1c(Nc1ccc(O)cc1)nc1ccccc12 [Compound 29] ? < 5.00

Which pIC50 is reported with human neutrophils for this entry: CC(=O)c1ccc(Nc2nc3ccccc3c3c2c(N)nn3C)cc1 [Compound 10] ? 5.33

Which pIC50 is reported with human neutrophils for this entry: CC(=O)c1ccc(Nc2nc3ccccc3c3onc(N)c23)cc1 [Compound 27] ? < 5.00

Which pIC50 is reported with human neutrophils for this entry: COc1cccc(Nc2nc3ccccc3c3c2c(N)nn3C)c1 [Compound 6] ? < 5.00

Which pIC50 is reported with human neutrophils for this entry: Cn1nc(N)c2c(Nc3ccccc3)nc3ccccc3c21 [Compound 3] ? 5.39

Which pIC50 is reported with human neutrophils for this entry: Nc1noc2c1c(Nc1ccc(C(=O)O)cc1)nc1ccccc12 [Compound 31] ? < 5.00

Which pIC50 is reported with human neutrophils for this entry: Cn1nc(N)c2c(Nc3ccc(Cl)cc3)nc3ccccc3c21 [Compound 17] ? 5.28

Which pIC50 is reported with human neutrophils for this entry: CSc1ccc(Nc2nc3ccccc3c3c2c(N)nn3C)cc1 [Compound 9] ? < 5.00

Which pIC50 is reported with human neutrophils for this entry: COc1ccccc1Nc1nc2ccccc2c2onc(N)c12 [Compound 21] ? < 5.00

====

- Tested on: human neutrophils
- protocolText: Superoxide anion (O2˙-) generation in fMLF/CB-activated human neutrophils (SOD-inhibitable ferricytochrome c reduction)
- Assay type: cell-based
- measurementContext: Neutrophil; FMLP/CB-induced human neutrophils; mean ± S.E.M. (n = 3-5); read-out: Superoxide Anion IC50
recordedMetric: pIC50
The read-out pIC50 is expressed as -log10 of concentration in moles per litre.

Look up pIC50: `CC(=O)c1ccc(Nc2nc3ccccc3c3c2c(N)nn3C)cc1` 5.80

Look up pIC50: `Nc1noc2c1c(Nc1ccc(F)cc1)nc1ccccc12` 5.21

Look up pIC50: `COc1ccc(Nc2nc3ccccc3c3onc(N)c23)cc1` 5.07

Look up pIC50: `Cn1nc(N)c2c(Nc3ccc(C(F)(F)F)cc3)nc3ccccc3c21` 5.34
